Origin of measurements: patent US9963443B2

Target: human CH24H (Homo sapiens (Human), UniProt Q9Y6A2)
Sequence (Q9Y6A2 whole entry): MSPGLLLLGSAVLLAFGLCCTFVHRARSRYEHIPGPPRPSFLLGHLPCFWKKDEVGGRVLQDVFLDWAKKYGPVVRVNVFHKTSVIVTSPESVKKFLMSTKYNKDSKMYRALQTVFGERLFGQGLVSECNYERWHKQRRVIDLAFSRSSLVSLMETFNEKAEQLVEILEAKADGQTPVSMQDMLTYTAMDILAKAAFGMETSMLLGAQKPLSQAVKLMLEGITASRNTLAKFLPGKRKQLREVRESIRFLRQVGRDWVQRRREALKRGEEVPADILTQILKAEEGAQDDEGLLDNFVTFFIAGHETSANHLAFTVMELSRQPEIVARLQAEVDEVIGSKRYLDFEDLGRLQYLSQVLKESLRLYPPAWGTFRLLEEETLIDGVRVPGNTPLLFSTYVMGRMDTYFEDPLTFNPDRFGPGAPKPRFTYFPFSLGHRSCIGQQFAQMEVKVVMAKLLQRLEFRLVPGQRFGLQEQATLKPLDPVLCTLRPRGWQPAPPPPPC
Assay: Measurement of CH24H inhibitory activity (24-HC produced from [14C]cholesterol by human CH24H lysate)
Settings: [14C]cholesterol 15 μM, 37° C. for 5 hr
pIC50: −log10 of the molar value.
Measured attribute: pIC50

P = O=C(C1CCN(c2cnccc2-n2cc(C3CC3)cn2)CC1)N1CC(F)C1 [Reference Example 26]
Q = Cc1cnn(-c2ccncc2N2CCN(C(=O)N(CCF)Cc3ccc(F)cc3)CC2)c1 [Reference Example 23]
stdin: Which gives the smaller pIC50 number: P or Q ? Indicate which entry you chose by stating its label.
stdout: Q
(Q: 7.77, P: 8.00)
